assayInfo: Selectivity index, ratio of CC50 for cytotoxicity against human MT4 cells assessed as reduction in cell viability by MTT assay to EC50 for anti-HIV activity against wild type HIV-1 IIIB infected in human MT4 cells assessed as inhibition of virus-induced cytopathic effect by MTT assay
Type: toxicity, cell-based
testConditions: read-out: Ratio CC50/EC50
Exercise: for every item that follows, state its recorded selectivity ratio.

Completed entries (count: 4):
# compound, selectivity ratio
data = [
    ("CCc1c(C(N=[N+]=[N-])c2cc(C)cc(C)c2)nc(SC(C)C)[nH]c1=O (centres undefined)", "> 5240"),
    ("CCc1c(C(N=[N+]=[N-])c2cccc3ccccc23)nc(SC(C)C)[nH]c1=O (centres undefined)", 81),
    ("CC(C)Sc1nc(C(N=[N+]=[N-])c2ccc3ccccc3c2)c(C(C)C)c(=O)[nH]1 (centres undefined)", "< 1"),
    ("Cc1c(C(N=[N+]=[N-])c2ccc(F)cc2)nc(SC(C)C)[nH]c1=O (centres undefined)", 1090),
]

Value sought for every listed compound: selectivity ratio.
1. Cc1ccc(C(N=[N+]=[N-])c2nc(SC(C)C)[nH]c(=O)c2C(C)C)cc1 (centres undefined)
2. Cc1c(C(N=[N+]=[N-])c2cccc3ccccc23)nc(SC(C)C)[nH]c1=O (centres undefined)
3. CCc1c(C(N=[N+]=[N-])c2ccc(C)cc2)nc(SC(C)C)[nH]c1=O (centres undefined)
4. Cc1cc(C)cc(C(N=[N+]=[N-])c2nc(SC(C)C)[nH]c(=O)c2C)c1 (centres undefined)
5. COc1cc(OC)cc(C(N=[N+]=[N-])c2nc(SC(C)C)[nH]c(=O)c2C)c1 (centres undefined)

1: > 667; 2: > 1000; 3: > 2300; 4: > 6820; 5: > 983

I would be grateful if you could provide selectivity ratio for each of the following entries.
1. Cc1cn([C@H]2C[C@H](N=[N+]=[N-])[C@@H](CO)O2)c(=O)[nH]c1=O
2. Cc1c(C(N=[N+]=[N-])c2ccc(OC(F)(F)F)cc2)nc(SC(C)C)[nH]c1=O (centres undefined)
3. CCc1c(C(N=[N+]=[N-])c2ccccc2)nc(SC(C)C)[nH]c1=O (centres undefined)
4. Cc1cc(C)cc(C(N=[N+]=[N-])c2nc(SC(C)C)[nH]c(=O)c2C(C)C)c1 (centres undefined)
5. Cc1c(C(N=[N+]=[N-])c2ccc(Br)cc2)nc(SC(C)C)[nH]c1=O (centres undefined)

1. > 236
2. > 63
3. > 2770
4. > 878
5. > 1410
